- protocol: qHTS drug screen for cell cycle checkpoint inhibitors in PARPi-resistant BRCA-mutant ovarian cancer cell lines. (AID 1963452)
- condition.details: PEO1/OlaR viability, CellTiter-Glo luminescence, 96 h; measured here: PEO1 parental Z-AUC; stronger effect = lower value
Note to self: class = bucket of Z-AUC, per zone 1 = under 0.2, zone 2 = from 0.2 up to 0.7, zone 3 = 0.7 and over

// known answers, use as guide
1. COCCCOc1ccnc(CS(=O)c2nc3ccccc3[nH]2)c1C (centres undefined) ... zone 1
2. CCCCCCCCCCCCCCCCCCCCCCO ... zone 2
3. N=C(N)c1ccc2cc(OC(=O)c3ccc(N=C(N)N)cc3)ccc2c1 ... zone 2
4. CCCCN(CCCC)CCC(O)c1cc2c(Cl)cc(Cl)cc2c2cc(C(F)(F)F)ccc12 (centres undefined) ... zone 1
5. CCN(CC)C(=S)SSC(=S)N(CC)CC ... zone 2

Field: next compound
Quick check: band for c1cnc2cc3c(cc2n1)C1CNCC3C1
zone 1
